Attribute: inhibition at 120 s, 10 µM
Biological target: hERG (Homo sapiens, UniProt Q12809)
Construct: expressed in transfected cells; host or cells: HEK293
Assay: Tl+-flux selectivity panel in HEK-293 cells: hERG
Assay type: cell-based
Conditions: HEK-293 cells stably expressing hERG, 10 µM test compound, relative to control bepridil, read-out: Percent Inhibition ± SEM
Protocol: With a handful of analogs that offered improved SLACK potency relative to hit compound 8, we next proceeded to investigate the ancillary pharmacology of such compounds, both with respect to other Slo family members as well as versus a spectrum of diverse ion channels (Table 5). Thus, we screened four compounds (32, 48, 70, and 71) at 10 µM in our in-house selectivity panel of Tl^+-flux assays in HEK-293 cells stably expressing the target of interest. […] Some valuable SAR was noted as well. […]
MEASUREMENT NAME: inhibition at 120 s, 10 µM (%)

1) COc1cccc(Cn2c(=O)c3c(nc(N(C)Cc4ccccc4)n3C)n(C)c2=O)c1 [Analog 32]; 4.6
2) CCCCN(Cc1ccccc1)c1nc2c(c(=O)n(Cc3ccccc3)c(=O)n2C)n1C [Analog 70]; 22
3) CN(Cc1cccc(F)c1)c1nc2c(c(=O)n(Cc3ccccc3)c(=O)n2C)n1C [Analog 48]; -2.8
4) Cn1c(N(Cc2ccccc2)CC2CC2)nc2c1c(=O)n(Cc1ccccc1)c(=O)n2C [Analog 71]; 23

====

Target: WT hSLACK (Homo sapiens, UniProt Q5JUK3)
Experiment: Whole-cell automated patch-clamp (APC) in CHO cells stably expressing WT hSLACK
Assay type: cell-based
Settings: range across the three variants, APC; read-out: IC50 values across WT, A934T, and G288S SLACK
Sequence (Q5JUK3 whole entry): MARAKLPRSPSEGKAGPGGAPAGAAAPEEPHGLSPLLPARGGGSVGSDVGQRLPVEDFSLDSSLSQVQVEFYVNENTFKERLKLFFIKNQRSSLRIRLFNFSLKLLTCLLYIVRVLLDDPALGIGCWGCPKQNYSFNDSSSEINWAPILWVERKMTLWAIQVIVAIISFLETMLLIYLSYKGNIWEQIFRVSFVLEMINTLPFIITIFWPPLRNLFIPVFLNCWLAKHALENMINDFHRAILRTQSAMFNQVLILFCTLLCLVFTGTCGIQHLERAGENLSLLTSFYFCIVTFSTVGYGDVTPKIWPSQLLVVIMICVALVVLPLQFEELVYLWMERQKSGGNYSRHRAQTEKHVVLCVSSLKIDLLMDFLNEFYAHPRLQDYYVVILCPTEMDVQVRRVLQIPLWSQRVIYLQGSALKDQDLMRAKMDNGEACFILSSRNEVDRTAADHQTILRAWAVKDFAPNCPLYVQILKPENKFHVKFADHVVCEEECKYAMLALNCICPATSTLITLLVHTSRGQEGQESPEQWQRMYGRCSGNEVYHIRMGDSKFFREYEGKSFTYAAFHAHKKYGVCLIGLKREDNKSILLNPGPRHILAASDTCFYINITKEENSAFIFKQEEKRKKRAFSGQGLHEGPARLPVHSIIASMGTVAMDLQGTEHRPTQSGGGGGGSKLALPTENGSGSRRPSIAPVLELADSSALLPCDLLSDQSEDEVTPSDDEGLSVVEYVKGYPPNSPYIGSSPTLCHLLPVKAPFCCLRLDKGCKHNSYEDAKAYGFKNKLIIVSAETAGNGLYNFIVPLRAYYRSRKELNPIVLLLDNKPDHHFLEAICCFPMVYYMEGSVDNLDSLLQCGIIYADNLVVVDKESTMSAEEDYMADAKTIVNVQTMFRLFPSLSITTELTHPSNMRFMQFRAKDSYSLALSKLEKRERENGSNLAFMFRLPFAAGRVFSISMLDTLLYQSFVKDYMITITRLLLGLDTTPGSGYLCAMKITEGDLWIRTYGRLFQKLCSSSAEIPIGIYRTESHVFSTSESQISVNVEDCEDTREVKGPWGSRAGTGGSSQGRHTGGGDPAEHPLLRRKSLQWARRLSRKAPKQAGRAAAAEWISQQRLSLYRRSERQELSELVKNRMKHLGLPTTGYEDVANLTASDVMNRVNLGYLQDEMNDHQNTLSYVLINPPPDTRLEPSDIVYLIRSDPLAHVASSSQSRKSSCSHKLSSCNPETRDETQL
MEASUREMENT NAME: IC50

1. CCCCN(Cc1ccc(F)cc1)c1nc2c(c(=O)n(Cc3cccc(OC)c3)c(=O)n2C)n1C; 590 to 710 nM

====

Molecular target: mouse WT SLACK (Mus musculus)
Sequence (Q6ZPR4 whole entry): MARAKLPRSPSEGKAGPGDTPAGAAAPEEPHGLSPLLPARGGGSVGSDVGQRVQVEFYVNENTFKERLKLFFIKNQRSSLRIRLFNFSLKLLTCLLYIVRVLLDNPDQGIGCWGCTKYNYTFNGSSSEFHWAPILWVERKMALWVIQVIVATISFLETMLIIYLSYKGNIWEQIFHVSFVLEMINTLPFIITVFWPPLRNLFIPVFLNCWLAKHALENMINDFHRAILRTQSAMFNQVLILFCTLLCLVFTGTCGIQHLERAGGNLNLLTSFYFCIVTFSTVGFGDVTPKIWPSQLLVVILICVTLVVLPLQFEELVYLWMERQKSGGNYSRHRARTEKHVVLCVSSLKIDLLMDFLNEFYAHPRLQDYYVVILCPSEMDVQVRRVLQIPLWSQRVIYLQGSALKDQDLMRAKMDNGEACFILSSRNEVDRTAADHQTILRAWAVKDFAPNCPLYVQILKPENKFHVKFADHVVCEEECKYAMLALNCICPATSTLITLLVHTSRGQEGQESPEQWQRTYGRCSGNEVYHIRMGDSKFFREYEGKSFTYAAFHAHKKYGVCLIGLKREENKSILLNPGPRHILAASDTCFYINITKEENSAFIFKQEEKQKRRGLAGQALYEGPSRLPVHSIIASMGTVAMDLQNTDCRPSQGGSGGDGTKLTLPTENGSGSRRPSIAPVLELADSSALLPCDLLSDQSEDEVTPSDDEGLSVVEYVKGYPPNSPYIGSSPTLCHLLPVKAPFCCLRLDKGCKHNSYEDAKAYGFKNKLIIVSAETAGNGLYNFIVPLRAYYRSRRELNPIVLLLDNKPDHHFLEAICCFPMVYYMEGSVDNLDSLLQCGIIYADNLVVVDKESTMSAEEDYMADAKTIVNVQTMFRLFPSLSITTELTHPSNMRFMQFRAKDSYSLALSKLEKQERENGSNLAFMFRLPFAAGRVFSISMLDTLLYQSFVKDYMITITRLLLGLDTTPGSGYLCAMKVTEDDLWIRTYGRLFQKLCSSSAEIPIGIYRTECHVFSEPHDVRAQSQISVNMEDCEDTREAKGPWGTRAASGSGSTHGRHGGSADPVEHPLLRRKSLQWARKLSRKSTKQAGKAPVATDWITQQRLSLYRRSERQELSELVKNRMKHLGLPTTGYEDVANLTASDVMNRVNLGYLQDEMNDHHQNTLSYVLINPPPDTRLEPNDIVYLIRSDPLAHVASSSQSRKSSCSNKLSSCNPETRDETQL
Assay: Whole-cell APC in CHO cells stably expressing mouse WT SLACK
Details: APC, CHO cells
Attribute: IC50
MEASUREMENT NAME: IC50

1) CN(Cc1cccc(F)c1)c1nc2c(c(=O)n(Cc3ccccc3)c(=O)n2C)n1C; 1300 nM
2) COc1cccc(Cn2c(=O)c3c(nc(N(C)Cc4ccccc4)n3C)n(C)c2=O)c1; 1400 nM

====

Attribute: SLACK Imax
Biological target: WT hSLACK (Homo sapiens, UniProt Q5JUK3)
Construct: host or cells: CHO-K1
Assay: Whole-cell automated patch-clamp (APC) in CHO cells stably expressing WT hSLACK
Type: cell-based
Settings: maximum inhibition at 30 µM test compound standardized to VU0606170 (set at 100%); WT hSLACK
Sequence (Q5JUK3 1-1235 isoform Q5JUK3-3): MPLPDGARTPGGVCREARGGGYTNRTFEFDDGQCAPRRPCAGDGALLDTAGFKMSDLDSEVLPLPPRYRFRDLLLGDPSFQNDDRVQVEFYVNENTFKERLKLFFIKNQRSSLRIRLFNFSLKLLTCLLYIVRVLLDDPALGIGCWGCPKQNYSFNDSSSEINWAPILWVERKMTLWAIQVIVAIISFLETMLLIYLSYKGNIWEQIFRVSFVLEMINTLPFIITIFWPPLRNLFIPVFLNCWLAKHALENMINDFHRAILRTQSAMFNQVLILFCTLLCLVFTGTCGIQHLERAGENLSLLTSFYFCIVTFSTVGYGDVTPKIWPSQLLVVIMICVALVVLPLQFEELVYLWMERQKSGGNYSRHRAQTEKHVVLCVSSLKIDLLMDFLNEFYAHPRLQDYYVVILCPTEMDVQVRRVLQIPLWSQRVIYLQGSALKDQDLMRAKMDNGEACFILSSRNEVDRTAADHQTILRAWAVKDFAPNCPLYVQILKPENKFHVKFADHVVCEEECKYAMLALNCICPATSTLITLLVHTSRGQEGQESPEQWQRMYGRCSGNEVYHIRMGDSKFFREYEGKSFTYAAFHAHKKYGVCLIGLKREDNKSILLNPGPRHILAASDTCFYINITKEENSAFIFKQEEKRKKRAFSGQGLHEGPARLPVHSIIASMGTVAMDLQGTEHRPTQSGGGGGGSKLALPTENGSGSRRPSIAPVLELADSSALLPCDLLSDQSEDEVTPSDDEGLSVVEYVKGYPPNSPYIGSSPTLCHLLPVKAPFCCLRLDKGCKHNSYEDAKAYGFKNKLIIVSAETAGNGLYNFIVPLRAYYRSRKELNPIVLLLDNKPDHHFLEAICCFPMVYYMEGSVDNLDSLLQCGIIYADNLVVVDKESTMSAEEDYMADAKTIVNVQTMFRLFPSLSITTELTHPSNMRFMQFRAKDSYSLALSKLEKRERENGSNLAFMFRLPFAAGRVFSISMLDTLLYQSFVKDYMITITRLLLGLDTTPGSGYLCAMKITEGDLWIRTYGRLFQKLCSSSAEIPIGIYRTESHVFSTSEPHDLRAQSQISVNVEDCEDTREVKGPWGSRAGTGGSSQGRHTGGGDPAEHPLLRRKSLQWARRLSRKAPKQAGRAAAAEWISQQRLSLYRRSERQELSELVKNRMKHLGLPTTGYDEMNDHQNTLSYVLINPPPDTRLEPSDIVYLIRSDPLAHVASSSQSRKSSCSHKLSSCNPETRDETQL
MEASUREMENT NAME: SLACK Imax (%)

1. COc1ccccc1CN(C)c1nc2c(c(=O)n(Cc3ccccc3)c(=O)n2C)n1C; 101
2. Cc1ccccc1Cn1c(=O)c2c(nc(N(C)Cc3ccccc3)n2C)n(C)c1=O; 100
3. Cn1c(N(Cc2ccccc2)Cc2ccccc2)nc2c1c(=O)n(Cc1ccccc1)c(=O)n2C; 100
4. CN(Cc1ccccc1)c1nc2c(c(=O)n(Cc3ccccc3F)c(=O)n2C)n1C; 100
5. CN(Cc1ccccc1)c1nc2c(c(=O)n(Cc3ccc(C#N)cc3)c(=O)n2C)n1C; 100
6. Cn1c(CCc2ccccc2)nc2c1c(=O)n(Cc1ccccc1)c(=O)n2C; 103
7. CN(Cc1cccc(F)c1)c1nc2c(c(=O)n(Cc3ccccc3)c(=O)n2C)n1C; 100
8. COc1ccccc1Cn1c(=O)c2c(nc(N(C)Cc3ccccc3)n2C)n(C)c1=O; 100
9. CN(Cc1ccccc1F)c1nc2c(c(=O)n(Cc3ccccc3)c(=O)n2C)n1C; 100

====

Target: WT hSLACK (Homo sapiens, UniProt Q5JUK3)
Construct: host or cells: CHO-K1
Test: Whole-cell automated patch-clamp (APC) in CHO cells stably expressing WT hSLACK
Format: cell-based
Conditions: maximum inhibition at 30 µM test compound standardized to VU0606170 (set at 100%); WT hSLACK
MEASUREMENT NAME: SLACK Imax (%)

1) CN(Cc1ccc(F)cc1)c1nc2c(c(=O)n(Cc3ccccc3)c(=O)n2C)n1C; 100
2) CN(Cc1cccc(C(F)(F)F)c1)c1nc2c(c(=O)n(Cc3ccccc3)c(=O)n2C)n1C; 101
3) C[C@H](c1ccccc1)N(C)c1nc2c(c(=O)n(Cc3ccccc3)c(=O)n2C)n1C; 100
4) CN(Cc1ccccc1)c1nc2c(c(=O)n(Cc3ccccc3Cl)c(=O)n2C)n1C; 89
5) CN(Cc1ccccc1)c1nc2c(c(=O)n(Cc3cccc(C(F)(F)F)c3)c(=O)n2C)n1C; 100
6) Cc1cccc(CN(C)c2nc3c(c(=O)n(Cc4ccccc4)c(=O)n3C)n2C)c1; 100
7) CN(Cc1ccccn1)c1nc2c(c(=O)n(Cc3ccccc3)c(=O)n2C)n1C; 107
8) CCCCN(Cc1ccccc1)c1nc2c(c(=O)n(Cc3ccccc3)c(=O)n2C)n1C; 100
9) COc1cccc(Cn2c(=O)c3c(nc(N(C)Cc4ccccc4)n3C)n(C)c2=O)c1; 100
10) COc1cccc(CN(C)c2nc3c(c(=O)n(Cc4ccccc4)c(=O)n3C)n2C)c1; 100
11) CCCn1c(N(C)Cc2ccccc2)nc2c1c(=O)n(Cc1ccccc1)c(=O)n2C; 94
12) CN(Cc1cccnc1)c1nc2c(c(=O)n(Cc3ccccc3)c(=O)n2C)n1C; 20
13) CN(Cc1ccncc1)c1nc2c(c(=O)n(Cc3ccccc3)c(=O)n2C)n1C; 70
14) CN(Cc1ccccc1)c1nc2c(c(=O)n(Cc3ccccc3C(F)(F)F)c(=O)n2C)n1C; 70
15) CN(Cc1ccccc1)c1nc2c(c(=O)n(Cc3cccc(C#N)c3)c(=O)n2C)n1C; 100
16) COc1ccc(Cn2c(=O)c3c(nc(N(C)Cc4ccccc4)n3C)n(C)c2=O)cc1; 78
17) Cn1c(NCc2ccccc2)nc2c1c(=O)n(Cc1ccccc1)c(=O)n2C [Analog 46a]; 88
18) CN(Cc1ccc(C(F)(F)F)cc1)c1nc2c(c(=O)n(Cc3ccccc3)c(=O)n2C)n1C; 100
19) CN(Cc1ccccc1)c1nc2c(c(=O)n(Cc3ccc(Cl)cc3)c(=O)n2C)n1C; 100
20) CN(Cc1ccccc1)c1nc2c(c(=O)n(Cc3ccccc3)c(=O)n2C)n1C; 100
21) Cn1c(N(Cc2ccccc2)CC2CC2)nc2c1c(=O)n(Cc1ccccc1)c(=O)n2C; 100
22) CCCN(Cc1ccccc1)c1nc2c(c(=O)n(Cc3ccccc3)c(=O)n2C)n1C; 100
23) CN(Cc1ccccc1)c1nc2c(c(=O)n(Cc3ccc(F)cc3)c(=O)n2C)n1C; 100
24) CN(Cc1ccccc1)c1nc2c(c(=O)n(Cc3ccc(C(F)(F)F)cc3)c(=O)n2C)n1C; 79
25) Cc1cccc(Cn2c(=O)c3c(nc(N(C)Cc4ccccc4)n3C)n(C)c2=O)c1; 100
26) CN(Cc1ccccc1Cl)c1nc2c(c(=O)n(Cc3ccccc3)c(=O)n2C)n1C; 100
27) CC(C)N(Cc1ccccc1)c1nc2c(c(=O)n(Cc3ccccc3)c(=O)n2C)n1C; 100
28) CCN(Cc1ccccc1)c1nc2c(c(=O)n(Cc3ccccc3)c(=O)n2C)n1C; 100
29) CN(Cc1cccc(Cl)c1)c1nc2c(c(=O)n(Cc3ccccc3)c(=O)n2C)n1C; 100
30) CN(Cc1ccccc1)c1nc2c(c(=O)n(Cc3cccc(Cl)c3)c(=O)n2C)n1C; 100
31) C[C@@H](c1ccccc1)N(C)c1nc2c(c(=O)n(Cc3ccccc3)c(=O)n2C)n1C; 50
32) Cc1ccccc1CN(C)c1nc2c(c(=O)n(Cc3ccccc3)c(=O)n2C)n1C; 100
33) CN(Cc1ccccc1)c1nc2c(c(=O)n(Cc3ccccc3C#N)c(=O)n2C)n1C; 99
34) CCn1c(N(C)Cc2ccccc2)nc2c1c(=O)n(Cc1ccccc1)c(=O)n2C; 87

====

Target: human G288S SLACK (Homo sapiens, UniProt Q5JUK3, G269S)
Construct: host or cells: CHO-K1
Sequence (Q5JUK3 1-1235 isoform Q5JUK3-3 G288S): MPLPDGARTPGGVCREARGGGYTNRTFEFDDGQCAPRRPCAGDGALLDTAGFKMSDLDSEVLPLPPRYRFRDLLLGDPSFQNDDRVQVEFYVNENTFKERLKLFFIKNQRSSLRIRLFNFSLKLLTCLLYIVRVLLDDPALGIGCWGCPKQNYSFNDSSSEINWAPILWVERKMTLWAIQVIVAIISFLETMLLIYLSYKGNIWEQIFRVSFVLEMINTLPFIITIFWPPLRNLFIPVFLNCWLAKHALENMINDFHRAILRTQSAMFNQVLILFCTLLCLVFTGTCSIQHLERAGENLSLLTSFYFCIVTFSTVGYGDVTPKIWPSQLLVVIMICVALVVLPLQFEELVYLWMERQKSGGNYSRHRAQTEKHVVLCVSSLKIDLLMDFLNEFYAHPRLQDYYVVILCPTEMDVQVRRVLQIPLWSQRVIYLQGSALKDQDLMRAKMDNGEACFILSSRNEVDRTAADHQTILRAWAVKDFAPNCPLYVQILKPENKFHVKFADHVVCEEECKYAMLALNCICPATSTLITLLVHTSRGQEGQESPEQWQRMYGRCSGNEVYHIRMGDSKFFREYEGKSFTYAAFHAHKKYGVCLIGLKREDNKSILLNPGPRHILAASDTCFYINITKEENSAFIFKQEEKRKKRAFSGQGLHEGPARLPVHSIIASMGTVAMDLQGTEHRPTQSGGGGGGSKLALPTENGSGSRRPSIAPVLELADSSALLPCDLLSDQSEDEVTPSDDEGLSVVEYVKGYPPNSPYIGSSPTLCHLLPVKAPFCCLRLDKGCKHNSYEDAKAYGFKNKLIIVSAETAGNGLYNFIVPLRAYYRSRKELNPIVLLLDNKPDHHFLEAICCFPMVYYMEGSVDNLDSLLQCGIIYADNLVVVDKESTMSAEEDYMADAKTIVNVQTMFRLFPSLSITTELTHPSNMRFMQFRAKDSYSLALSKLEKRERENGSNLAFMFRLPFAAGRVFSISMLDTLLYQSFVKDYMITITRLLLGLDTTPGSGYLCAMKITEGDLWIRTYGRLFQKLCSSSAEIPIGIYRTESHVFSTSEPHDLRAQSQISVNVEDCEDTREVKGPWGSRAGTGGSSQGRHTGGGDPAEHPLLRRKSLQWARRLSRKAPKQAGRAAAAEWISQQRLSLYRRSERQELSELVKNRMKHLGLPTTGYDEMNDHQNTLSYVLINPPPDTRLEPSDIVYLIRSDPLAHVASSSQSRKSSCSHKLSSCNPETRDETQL
Assay: Whole-cell APC in CHO cells stably expressing human G288S SLACK
Assay type: cell-based
Details: APC, CHO cells
Source text: Development of a useful SLACK inhibitor in vivo tool will require potent activity at the corresponding mouse ortholog as studies in appropriate mouse models will be critical. Thus, we evaluated analogs 32 and 48 in our APC assay using CHO cells stably expressing mouse WT SLACK (Table 6). […] We were also eager to evaluate the same compounds with regard to their ability to inhibit clinically relevant GOF SLACK mutants. […]
pIC50: −log10 of the molar value.
MEASUREMENT NAME: pIC50

1. CCCCN(Cc1ccc(F)cc1)c1nc2c(c(=O)n(Cc3cccc(OC)c3)c(=O)n2C)n1C; 6.15
2. CCCCN(Cc1cccc(F)c1)c1nc2c(c(=O)n(Cc3cccc(OC)c3)c(=O)n2C)n1C; 6.06
3. COc1cccc(Cn2c(=O)c3c(nc(N(Cc4cccc(F)c4)CC4CC4)n3C)n(C)c2=O)c1; 6.00
4. CN(Cc1cccc(F)c1)c1nc2c(c(=O)n(Cc3ccccc3)c(=O)n2C)n1C; 6.12
5. COc1cccc(Cn2c(=O)c3c(nc(N(C)Cc4ccccc4)n3C)n(C)c2=O)c1; 6.19
6. COc1cccc(Cn2c(=O)c3c(nc(N(Cc4ccc(F)cc4)CC4CC4)n3C)n(C)c2=O)c1; 6.10
